molecular target: Gamma-secretase; assay: Inhibition of gamma-secretase mediated amyloid beta-40 production in HEK293 cell membranes; assay type: cell-based, Homo sapiens
result type: IC50 (nM)

Record excerpt, results attached:
O=C(OC1(C2CCCC(c3cc(F)cc(F)c3)N2S(=O)(=O)c2cc(F)cc(F)c2)CC1)N1CCN(CCO)CC1 (racemic)	16.8
CCCC1(O)CCN(C(=O)OC2(C3CCCC(c4cccc(F)c4)N3S(=O)(=O)c3ccc(Cl)cc3)CC2)CC1 (racemic)	4.5

(1) Cl.O=C(OC1(C2CCCC(c3cc(F)cc(F)c3)N2S(=O)(=O)c2ccc(Cl)cc2)CC1)N1CCNCC1 (racemic; form 2)
(2) O=C(OC1(C2CCCC(c3cc(F)cc(F)c3)N2S(=O)(=O)c2cc(F)cc(F)c2)CC1)N1CCC(N2CCCCC2)CC1 (racemic)
(3) C[C@H]1CN(CCO)CCN1C(=O)OC1(C2CCCC(c3cccc(F)c3)N2S(=O)(=O)c2ccc(Cl)cc2)CC1 (mixture of isomers)
(4) O=C(OC[C@H]1CCC[C@@H](c2cc(F)cc(F)c2)N1S(=O)(=O)c1ccc(Cl)cc1)N1CCC2(CC1)C(=O)NCN2c1ccccc1 (racemic)
Query :: Ordering: ascending IC50. // list labels; follow requested order
Result :: 3, 2, 1, 4
